Entries annotated with measured Fold over parental 293T
target_or_test_system: T1, human IL-12RB1 overexpressed on 293T cells (Example 2) (human, UniProt P42701 24-662)
T1 construct: whole, on cells
method: FACS, hybridoma supernatant, 293T
parameter_measured: Fold over parental 293T (fold)

binder="85801_01M07 (antibody, V domains shown, also called 85801_01M07A) VH: QVQLVQSGAEVKKPGASVKVSCKASEYTFTDDYMHWVRQAPGQGLVWMGWINPNSGGTNYAQKFQGRVTMTRDTSISTAYMELSRLRSDDTAVYYCARGGLNWGWDWFDPWGQGTLVTVSS VL: EIVLTQSPGTLSLSPGERATLSCRASQNINNNYLAWYQRKPGQAPRLLIYGASSRATGIPDRFSGSGSGTDFTLTISRLEPEDFAMYYCQQYGSSLTFGGGTKVEIK" parameter_measured="Fold over parental 293T" measured_result=91
binder="85801_04M12 (antibody, V domains shown, also called 85801_04M12A) VH: QVQLVESGGGVVQPGRSLRLSCAASGFTFSSHGMHWVRQAPGKGLEWVAIIWYAGNKKYYADSVKGRFTISRDNSKNTLYLQMNSLRAEDTAVYYCARESLLNSASDIWGQGTMVTVSS VL: QSVLTQPPSVSAAPGQTVTISCSGSSSNIGNNYVSWYQQLPGTAPKLLIYDNNKRPSGIPDRFSGSKSGTSATLGITGLQTGDEADYYCGTWDSSLSAVVFGGGTKLTVL" parameter_measured="Fold over parental 293T" measured_result=192
binder="85801_04M10 (antibody, V domains shown, also called 85801_04M10A) VH: QVQLQESGPGLVKPSETLSLTCTVSGGSISSYYWSWIRQPAGTGLEWIGRFYTSGSTIYNPSLESRVTMSVDTSKNQFSLKLSSVTAADTAVYYCATERDYPHDAFDIWGQGTMVTVSS VL: DIQLTQSPSFLSASVGDRVTIPCRASQDISSFLAWYQQKPGKAPNLLIYAASTLQSGVPSRFSGSGSGTEFTLTISSLQPEDFATYYCQQLNGYPLTFGGGTKVEIK" parameter_measured="Fold over parental 293T" measured_result=336
binder="85801_06L19 (antibody, V domains shown, also called 85801_06L19A) VH: QVQLVQSGAEVKKPGASVKVSCKASGYTFTDYYIHWVRQAPGQGLEWMGWINPDSGGTHYAQKFQGRVTMTRDTSISTVYMDLSRLRSDDTAVYYCAREGEGLASFDSWGQGTLVTVSS VL: DIQMTQSPSSLSASVGNRVTITCRASQGINNYLAWFQQKPGKAPKSLIYAASSLQSGVPSKFSGSGSGTDFTLTISSLQPEDFATYYCQQYNNYPFTFGPGTKVDIK" parameter_measured="Fold over parental 293T" measured_result=73
binder="85801_04D14 (antibody, V domains shown, also called 85801_04D14A) VH: QVHLVQSGAEVKKPGASVKVSCKASGYTFIDYYMHWVRQAPGQGLEWMGWINPNSGGTHYSQKFQGRVTMTWDTSISTAYMELSRLTSDDTAVYYCAREGDYISSSAFDYWGQGTLVTVSS VL: DIQLTQSPSFLSASVGDRVTITCRASQGISSYLAWYQQKPGKAPKVLIYAASTLQSGVPSRFSGSGSGTEFTLTISSLLPEDFATYFCQQLHRYPYTFGQGAKLEIK" parameter_measured="Fold over parental 293T" measured_result=202
